experimental_system: Prostaglandin G/H synthase 2 (Homo sapiens)
Sequence (P35354 whole entry): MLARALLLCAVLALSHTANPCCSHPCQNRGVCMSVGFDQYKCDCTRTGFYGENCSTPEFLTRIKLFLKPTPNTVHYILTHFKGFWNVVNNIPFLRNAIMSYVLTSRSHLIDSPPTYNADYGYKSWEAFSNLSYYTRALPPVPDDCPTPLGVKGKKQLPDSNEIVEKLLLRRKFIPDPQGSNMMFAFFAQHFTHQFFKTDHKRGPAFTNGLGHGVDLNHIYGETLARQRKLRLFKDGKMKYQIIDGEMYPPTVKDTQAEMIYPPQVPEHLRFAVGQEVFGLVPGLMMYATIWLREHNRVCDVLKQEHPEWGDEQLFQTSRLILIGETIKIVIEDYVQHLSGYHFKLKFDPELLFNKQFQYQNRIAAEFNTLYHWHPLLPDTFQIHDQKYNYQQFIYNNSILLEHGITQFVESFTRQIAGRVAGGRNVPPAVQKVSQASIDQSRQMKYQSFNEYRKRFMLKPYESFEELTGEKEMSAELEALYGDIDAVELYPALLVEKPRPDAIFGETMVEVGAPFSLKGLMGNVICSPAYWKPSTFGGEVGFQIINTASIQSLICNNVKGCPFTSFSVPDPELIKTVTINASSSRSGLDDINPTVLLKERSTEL
Compiled pIC50 measurements on Prostaglandin G/H synthase 2 (Homo sapiens) taken from the literature.
Please keep in mind that pIC50 is minus log10 of the molar concentration; only the number is needed.

{"compound": "O=C(COc1cc(O)c2c(=O)cc(-c3ccccc3)oc2c1)OCc1cc(-c2cccc(F)c2)n(-c2ccccc2)n1", "pIC50": 5.45}
{"compound": "CC1=NN(c2ccccc2)C(=O)/C1=C\\c1cn(CCCOc2cc(O)c3c(=O)cc(-c4ccccc4)oc3c2)c2ccccc12", "pIC50": 6.15}
{"compound": "COc1ccc2c(c1)c(CC(=O)NCCCO)c(C)n2C(=O)c1ccc(Cl)cc1", "pIC50": 6.66}
{"compound": "CC1(C)CC(c2ccc(Cl)cc2)C(CN2CCC(c3noc4cc(F)ccc34)CC2)=NO1 (stereo not drawn)", "pIC50": 5.39}
{"compound": "CCc1ccc(-n2cc(CNC(=O)C(=O)c3cc4ccccc4[nH]3)nn2)cc1", "pIC50": 6.92}

Task: Quick one: pIC50 for `COc1ccc(-c2cc(C(=O)NCCCN3CCOCC3)nn2-c2ccc(S(N)(=O)=O)cc2)cc1` ?
Result: 6.15

Task: // query pIC50 value for entry `COc1ccc(Nc2cnccc2NS(C)(=O)=O)cc1`
Result: 4.67
